Listed below: phospho-S6 immunofluorescence (z-score) values for each entry.
Test system: MDA-MB-468
TEST: phospho-S6 immunofluorescence (DAPI-normalised), per-plate z-score; higher = higher phospho-S6 signal (less pathway suppression)
CONDITIONS_USED: co-treatment: lapatinib 1 uM; 24 h
Structures can show the parent of a compound that is named as a salt.
Output spec: single numeric token, no unit.

Below, each entry is followed by its recorded phospho-S6 immunofluorescence (z-score) result.
COMPOUND | phospho-S6 immunofluorescence (z-score)
Cc1ccc2c(c1CCC(=O)O)CC[C@@H](NS(=O)(=O)c1ccc(Cl)cc1)C2 [Terutroban] (compound 10 µM) | 0.55
CCCCc1ncc(/C=C(\Cc2cccs2)C(=O)O)n1Cc1ccc(C(=O)O)cc1 [Eprosartan (mesylate)] (compound 10 µM) | 0.05
CCc1ccc(OCc2ccccc2C(=O)Nc2ccc3nc(C)cc(N)c3c2)cc1 (compound 10 µM) | -12
Cc1c(C(=O)NN2CCCCC2)nn(-c2ccc(Cl)cc2Cl)c1-c1ccc(Cl)cc1 [Rimonabant (Hydrochloride)] (compound 10 µM) | -4.25
CC(C)(O)c1ccccc1CC[C@@H](SCC1(CC(=O)O)CC1)c1cccc(/C=C/c2ccc3ccc(Cl)cc3n2)c1 [Montelukast (sodium)] (compound 10 µM) | 0.97

// query Please give the measured phospho-S6 immunofluorescence (z-score) for this compound: Nc1nc(-c2nn(Cc3ccccc3F)c3ncccc23)ncc1C1CC1 (compound 10 µM)
// result 2.78

// query And for CCN1CCC[C@H]1CNC(=O)c1cc(S(N)(=O)=O)ccc1OC [Levosulpiride] (compound 10 µM) ?
// result 0.89

// query And for CNC(=C[N+](=O)[O-])NCCSCc1csc(CN(C)C)n1 [Nizatidine] (compound 10 µM) ?
// result 0.52

// query And for c1ccc2c(c1)OCC(CN1CCCCC1)O2 (centres undefined) [Piperoxan (hydrochloride)] (compound 10 µM) ?
// result 0.61

// query And for CCOc1nc2cccc(C(=O)O)c2n1Cc1ccc(-c2ccccc2-c2noc(=O)[nH]2)cc1 [Azilsartan] (compound 10 µM) ?
// result 0.26

// query And for CCOC(=O)N[C@@H]1CC[C@@H]2[C@@H](C1)C[C@H]1C(=O)O[C@H](C)[C@H]1[C@H]2/C=C/c1ccc(-c2cccc(F)c2)cn1 [Vorapaxar] (compound 10 µM) ?
// result -11.6

// query And for CCC(N)(C(=O)O)c1ccc(C(=O)O)cc1 (centres undefined) (compound 10 µM) ?
// result 0.12

// query And for CC(C)NCC(O)c1ccc(O)c(O)c1 (centres undefined) [Isoprenaline (hydrochloride)] (compound 10 µM) ?
// result 2.74

// query And for CNS(=O)(=O)CCc1ccc2[nH]cc(C3CCN(C)CC3)c2c1 [Naratriptan (hydrochloride)] (compound 10 µM) ?
// result 0.4

###

System: MDA-MB-468
TEST: phospho-S6 immunofluorescence (DAPI-normalised), per-plate z-score; higher = higher phospho-S6 signal (less pathway suppression)
CONDITIONS_USED: co-treatment: vehicle; 24 h
Structures can show the parent of a compound that is named as a salt.
OBSERVED_PROPERTY: phospho-S6 immunofluorescence (z-score)

Below, each entry is followed by its recorded phospho-S6 immunofluorescence (z-score) result.
COMPOUND | phospho-S6 immunofluorescence (z-score)
CCCSc1nc(N[C@@H]2C[C@H]2c2ccc(F)c(F)c2)c2nnn([C@@H]3C[C@H](OCCO)[C@@H](O)[C@H]3O)c2n1 [Ticagrelor] (compound 10 µM) | 1.13
CC1(C)O[C@@H]2C[C@H]3[C@@H]4CCC5=CC(=O)C=C[C@]5(C)[C@H]4[C@@H](O)C[C@]3(C)[C@]2(C(=O)CO)O1 [Desonide] (compound 10 µM) | 1.16

// query Lookup: phospho-S6 immunofluorescence (z-score) / MDA-MB-468 / Cc1cc(NC(=O)Nc2ccc(N(C)C)cc2)c2cc(F)cc(F)c2n1 (compound 10 µM)
// result -2.06

// query And for CNC(=O)c1cnn(-c2nc(N)c3ncn([C@@H]4O[C@H](CO)[C@@H](O)[C@H]4O)c3n2)c1 [Regadenoson] (compound 10 µM) ?
// result 0.29

// query And for CN(C)CCCN1c2ccccc2CCc2ccc(Cl)cc21 [Clomipramine (hydrochloride)] (compound 10 µM) ?
// result -1.14

// query And for Cc1cc2c(cc1Cl)N(C(=O)Nc1ccc(Oc3cccnc3C)nc1)CC2 (compound 10 µM) ?
// result -1.44

// query And for COc1ccc(-c2oc3c(CC=C(C)C)c(O)cc(O)c3c(=O)c2O[C@@H]2O[C@@H](C)[C@H](O)[C@@H](O)[C@H]2O)cc1 [Baohuoside I] (compound 10 µM) ?
// result -7.08

// query And for CC(C)(C)C(=O)C(=Nc1ccc(Cl)cc1)NNc1ccc(Cl)cc1 (compound 10 µM) ?
// result -3.76

// query And for Nc1nc(NCCc2ccc(O)cc2)nc2nc(-c3ccco3)nn12 (compound 10 µM) ?
// result 1.01

// query And for N=C(N)N/N=C/c1c(Cl)cccc1Cl [Guanabenz (Acetate)] (compound 10 µM) ?
// result -0.2

// query And for CC(=O)Nc1cccc2c1c(Sc1ccc(Cl)cc1)c(C)n2CC(=O)O (compound 10 µM) ?
// result -0.17

###

System: MDA-MB-468
TEST: phospho-S6 immunofluorescence (DAPI-normalised), per-plate z-score; higher = higher phospho-S6 signal (less pathway suppression)
CONDITIONS_USED: co-treatment: vehicle; 24 h
Decide using phospho-S6 immunofluorescence (z-score): a value greater than or equal to 0.3 is True, a smaller one is False.

Sample answers from the record:
COMPOUND | TESTED_ON | DISCRETE_LABEL
CCN1CCC[C@H]1CNC(=O)c1cc(S(N)(=O)=O)ccc1OC [Levosulpiride] (compound 10 µM) | MDA-MB-468 | False
Clc1ccc2c(c1)CCc1cccnc1C2=C1CCNCC1 [Desloratadine] (compound 10 µM) | MDA-MB-468 | True
CC(=O)N[C@H](Cc1ccc2ccccc2c1)C(=O)N[C@H](Cc1ccc(Cl)cc1)C(=O)N[C@H](Cc1cccnc1)C(=O)N[C@@H](CO)C(=O)N(C)[C@@H](Cc1ccc(O)cc1)C(=O)N[C@H](CC(N)=O)C(=O)N[C@@H](CC(C)C)C(=O)N[C@@H](CCCCNC(C)C)C(=O)N1CCC[C@H]1C(=O)N[C@H](C)C(N)=O [Abarelix] (compound 10 µM) | MDA-MB-468 | False
CC(C)(C)NCC(O)c1ccc(O)c(CO)c1 (stereo unspecified) [Salbutamol (hemisulfate)] (compound 10 µM) | MDA-MB-468 | True

Now look at this one.
// query Please tell me: is the compound Cc1nc2ccc(NC(=O)Nc3ccnc4cccnc34)cc2o1 (compound 10 µM) at or over 0.3 in terms of phospho-S6 immunofluorescence (z-score)?
// result True

###

Listed below: phospho-S6 immunofluorescence (z-score) values for each entry.
Tested on: MDA-MB-468
TEST: phospho-S6 immunofluorescence (DAPI-normalised), per-plate z-score; higher = higher phospho-S6 signal (less pathway suppression)
CONDITIONS_USED: co-treatment: vehicle; 24 h
Structures can show the parent of a compound that is named as a salt.

COMPOUND | TESTED_ON | phospho-S6 immunofluorescence (z-score)
COCCOc1ccc(N2CCN(CCn3ncc4c3nc(N)n3nc(-c5ccco5)nc43)CC2)cc1 [Preladenant] (compound 10 µM) | MDA-MB-468 | 0.97
Cn1c(SCC(=O)N2CCC[C@H]2C(=O)Nc2ccccc2-c2ccccc2)nc2ccccc21 (compound 10 µM) | MDA-MB-468 | 0.81
CCCCCCCCOc1ccccc1C(=O)Nc1ccc(C(=O)OCC[N+](C)(CC)CC)cc1 [Otilonium (bromide)] (compound 10 µM) | MDA-MB-468 | 0.94
CN1CCC(=C2c3ccccc3CCc3sccc32)CC1 [Pizotifen] (compound 10 µM) | MDA-MB-468 | -0.19
Nc1nc(CC(=O)Nc2ccc(CCNC[C@H](O)c3ccccc3)cc2)cs1 [Mirabegron] (compound 10 µM) | MDA-MB-468 | 0.56
O=c1ccn([C@@H]2O[C@H](COP(=O)(O)OP(=O)(O)OP(=O)(O)OP(=O)(O)OC[C@H]3O[C@@H](n4ccc(=O)[nH]c4=O)[C@H](O)[C@@H]3O)[C@@H](O)[C@H]2O)c(=O)[nH]1 [Diquafosol (tetrasodium)] (compound 10 µM) | MDA-MB-468 | -0.38
CN1CCN(c2cc(-c3ccccc3)nc(N)n2)CC1 (compound 10 µM) | MDA-MB-468 | 1.14
Clc1ccc(CCCOCCCN2CCCCC2)cc1 [Pitolisant (hydrochloride)] (compound 10 µM) | MDA-MB-468 | -0.12
O=C(/C=C/c1ccc(Cl)cc1)N1CCC2(CC1)CN(Cc1ccc(Cl)c(Cl)c1)C(=O)O2 (compound 10 µM) | MDA-MB-468 | -1.92
COc1ccccc1Oc1c(NS(=O)(=O)c2ccc(C)cn2)nc(-c2ccncc2)nc1OC [Avosentan] (compound 10 µM) | MDA-MB-468 | -0.65

// query Please give the measured phospho-S6 immunofluorescence (z-score) for this compound: O=C(c1ccc(F)cc1)C1CCN(CCn2c(=O)[nH]c3ccccc3c2=O)CC1 [Ketanserin (tartrate)] (compound 10 µM)
// result 0.68

// query And for COc1cc(N)c(Cl)cc1C(=O)NC1CCN(CCCOc2ccc(F)cc2)CC1OC (centres undefined) [Cisapride] (compound 10 µM) ?
// result -0.58

// query And for CCC(=O)OCC(=O)[C@@]1(OC(=O)CC)[C@@H](C)C[C@H]2[C@@H]3CCC4=CC(=O)C=C[C@]4(C)[C@@]3(Cl)[C@@H](O)C[C@@]21C [Beclometasone dipropionate] (compound 10 µM) ?
// result 0.15

// query And for CCCN(CCc1cccs1)[C@H]1CCc2c(O)cccc2C1 [Rotigotine] (compound 10 µM) ?
// result -0.73
